test system: COLO 205 colon; assay: NCI tumour cell line growth inhibition, 48 h; in the data active = GI50 below about 0.43 µM; inactive = the rest
Outcome codes: Yes (active), No (inactive)

>  <compound>
Cc1ccc(/C=C2\CN(C(=O)C(Cl)Cl)C/C(=C\c3ccc(C)cc3)C2=O)cc1

>  <class_label>
Yes

$$$$
>  <compound>
CCCCCCNC(=O)Oc1ccc(/C(=C(/C)Cc2ccc(OC)cc2)c2ccc(OCCCN(C)C)cc2)cc1

>  <class_label>
No

$$$$
>  <compound>
FC(F)(F)c1ccc(-c2cnc(-n3cc(COCCN4CCCCC4)nn3)nc2NC2CCCCCC2)cc1

>  <class_label>
No

$$$$
>  <compound>
CCN1C(=O)CCCc2c1ccc(Nc1ncc(Cl)c(NC3[C@@H](C(N)=O)[C@@H]4C=C[C@H]3C4)n1)c2OC (stereo partly drawn)

>  <class_label>
No

$$$$
>  <compound>
CCOC(=O)c1c(C)n(Cc2ccccc2)c2c1cc(O)c1[nH]c(Cc3ccccc3)nc12

>  <class_label>
No

$$$$
>  <compound>
C=C1C(=O)O[C@H]2[C@H]1CC/C(COC(=O)CCSCCC(=O)OC/C1=C/CC[C@@]3(C)O[C@H]3[C@H]3OC(=O)C(=C)[C@@H]3CC1)=C\CC[C@@]1(C)O[C@@H]21

>  <class_label>
No

$$$$
>  <compound>
COc1ccc(/C=c2\sc3n(c2=O)C2C(NN=3)N(C)C(=O)N2C)cc1 (stereo not drawn)

>  <class_label>
No

$$$$
>  <compound>
O=C(CN1CCN(c2cc3c(cc2F)c(=O)c(C(=O)O)cn3C2CC2)CC1)Nc1nc(-c2ccc(Cl)cc2)cs1

>  <class_label>
No

$$$$

###

system: SR leukemia; assay: NCI tumour cell line growth inhibition, 48 h
assay_readout: TGI

>  <molecule>
COc1ccc(/C=c2\sc3n(c2=O)C2C(NN=3)N(C)C(=O)N2C)cc1 (stereo unspecified)

>  <reported_value>
> 100 µM

$$$$
>  <molecule>
Brc1ccc2[nH]cc(-c3nc(-c4c[nH]c5ncccc45)cs3)c2c1

>  <reported_value>
14.3 µM

$$$$
>  <molecule>
COC(=O)/C(=N/Nc1cccc(Cl)c1)C(C(=O)C(=O)Nc1cccc(Cl)c1C)c1nc2ccccc2nc1C (stereo unspecified)

>  <reported_value>
> 100 µM

$$$$
>  <molecule>
COC(OC)C1OCC(n2cc(F)c(=O)[nH]c2=O)C1O (stereo unspecified)

>  <reported_value>
> 100 µM

$$$$
>  <molecule>
O=[N+]([O-])c1ccc(Oc2nc(Nc3ccc(O[C@H]4CO[C@H]5[C@@H]4OC[C@@H]5O)c(Cl)c3)ncc2F)c(Cl)c1

>  <reported_value>
7.79 µM

$$$$
>  <molecule>
CC(=O)OCc1cncn1S(=O)(=O)c1ccc(C)cc1

>  <reported_value>
> 100 µM

$$$$

###

tested on: ACHN renal; assay: NCI tumour cell line growth inhibition, 48 h
assay_readout: GI50

>  <compound>
N[C@@H]1C(=O)N2C(C(=O)OC(c3ccccc3)c3ccccc3)=C(CCl)CS[C@H]12

>  <experimental_target>
ACHN renal

>  <reported_value>
40.2 µM

$$$$
>  <compound>
COc1ccc(C(c2ccc(OCCN(C)C)cc2)c2cc3ccccc3c3ccccc23)cc1 (stereo not given)

>  <experimental_target>
ACHN renal

>  <reported_value>
1.7 µM

$$$$
>  <compound>
Oc1ccc(-c2nc3ccc4[nH]ncc4c3c3c2CCCC3)c(F)c1

>  <experimental_target>
ACHN renal

>  <reported_value>
2.08 µM

$$$$
>  <compound>
Nc1cc(O)ccc1N=Nc1ccc(-c2nc3ccccc3[nH]2)cc1

>  <experimental_target>
ACHN renal

>  <reported_value>
34 µM

$$$$
>  <compound>
CCN1C(=O)CCCc2c1ccc(Nc1ncc(Cl)c(NC3[C@@H](C(N)=O)[C@@H]4C=C[C@H]3C4)n1)c2OC (stereo not given in full)

>  <experimental_target>
ACHN renal

>  <reported_value>
2.07 µM

$$$$
>  <compound>
COc1ccc(-c2ccc(-c3ccc(C(=N)N)nc3)s2)cc1Cl

>  <experimental_target>
ACHN renal

>  <reported_value>
1.77 µM

$$$$
>  <compound>
N#Cc1c(Br)n(C2OC(CO)C(O)C2O)c2ncnc(N)c12 (stereo not given)

>  <experimental_target>
ACHN renal

>  <reported_value>
1.21 µM

$$$$
>  <compound>
COc1cccc(-c2ccc3c(c2)C2CCN(Cc4ccccc4)C3C2)c1 (stereo not given)

>  <experimental_target>
ACHN renal

>  <reported_value>
11.9 µM

$$$$
>  <compound>
Cc1ccc(-c2c3c(nn2-c2ccc(S(N)(=O)=O)cc2)-c2ccccc2C3)cc1

>  <experimental_target>
ACHN renal

>  <reported_value>
19.8 µM

$$$$
>  <compound>
Oc1ccc(O)c(-c2cc(-c3ccc(Cl)cc3)nn2-c2ccccc2)c1

>  <experimental_target>
ACHN renal

>  <reported_value>
18.6 µM

$$$$
>  <compound>
CCOC(=O)c1c(C)n(Cc2ccccc2)c2c1cc(O)c1[nH]c(Cc3ccccc3)nc12

>  <experimental_target>
ACHN renal

>  <reported_value>
23 µM

$$$$
>  <compound>
COc1ccccc1C1=C(Nc2ccccc2)C(=O)NC1=O

>  <experimental_target>
ACHN renal

>  <reported_value>
> 25 µM

$$$$
>  <compound>
Cc1cc(Nc2nc(-c3cccnc3)nc3ccccc23)n[nH]1

>  <experimental_target>
ACHN renal

>  <reported_value>
0.527 µM

$$$$
>  <compound>
CCC(c1ccc(OC)cc1)C(CC)c1ccc(O)c(CN2CCN(C)CC2)c1 (stereo not given)

>  <experimental_target>
ACHN renal

>  <reported_value>
9.99 µM

$$$$
>  <compound>
CCOc1cc(Br)c(C(C)NC(=O)c2cccc(OC)c2)cc1OCC (stereo not given)

>  <experimental_target>
ACHN renal

>  <reported_value>
21.1 µM

$$$$

Each recorded value in this set is attributed to PubChem BioAssay (NCI).
